test system: HOP-62 NSCLC; test: NCI tumour cell line growth inhibition, 48 h
MEASUREMENT_TYPE: TGI

Example cases with answers are listed next.
>>> assay_value("S=c1scc(-c2ccc(Cl)cc2)n1OC1CCCC1")
"> 100 µM"
>>> assay_value("Cc1ccccc1N=Nc1ccc(N=Nc2c(O)ccc3cc(S(=O)(=O)O)cc(S(=O)(=O)O)c23)c(C)c1")
"> 100 µM"
>>> assay_value("O=c1c2ccccc2c(C=NCCNCCO)c2oc3ccccc3n12")
"25.6 µM"
>>> assay_value("CCCC(=O)C(CC)/C(CCC(=O)N(Cc1ccccc1)Cc1ccccc1)=N/NC(=O)C[N+](C)(C)C (stereo not drawn)")
"> 100 µM"
>>> assay_value("COc1ccc(C(=O)N=C2N(c3ccccc3)C(=Nc3ccccc3)C(=Nc3ccccc3)N2c2ccccc2)cc1")
"57.5 µM"
>>> assay_value("CCOC(=O)NC(=O)c1cn(-c2ccc(CCOC(=O)CCCCCCCCC(=O)OCCc3ccc(-n4cc(C(=O)NC(=O)OCC)c(=O)[nH]c4=O)cc3)cc2)c(=O)[nH]c1=O")
"> 100 µM"

Requested field: TGI. Item: CCc1nc2cc(/C=C/C(=O)NO)c(F)cc2c(=O)n1CCc1ccccc1
5.98 µM

Repeat with COC(=O)C(=O)C(C(=O)C(=O)Nc1ccc([N+](=O)[O-])cc1C#N)c1nc2ccc([N+](=O)[O-])cc2[nH]c1=O (stereo not drawn)
> 100 µM
